Please provide measured pKi for the entries that follow.
- tested.system: Proteasome Macropain subunit PRE2 (Saccharomyces cerevisiae S288c, UniProt P30656)
- Sequence (P30656 whole entry): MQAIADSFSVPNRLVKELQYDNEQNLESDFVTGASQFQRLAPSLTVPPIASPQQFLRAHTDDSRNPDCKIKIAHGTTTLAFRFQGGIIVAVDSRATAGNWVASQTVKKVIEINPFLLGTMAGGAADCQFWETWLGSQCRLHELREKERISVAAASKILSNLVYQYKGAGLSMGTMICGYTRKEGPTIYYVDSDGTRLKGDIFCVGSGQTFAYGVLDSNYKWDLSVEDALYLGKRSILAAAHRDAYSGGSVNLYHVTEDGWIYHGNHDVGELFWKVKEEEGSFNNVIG
- assay.remarks: Inhibition of chymotrypsin like activity of yeast 20S proteasome
Residues, ends and D or L forms follow the SMILES beside them.
To interpret pKi, take it as minus log10 of a concentration measured in moles per litre.

Exercise: For the compound shown here, CCCCCC(=O)N[C@H](C(=O)N[C@H](C(=O)N[C@H](C(=O)N[C@@H](Cc1ccccc1)C(=O)N[C@@H](CC(=O)O)C(=O)N[C@@H](Cc1ccc(O)cc1)C(=O)O)[C@@H](C)O)[C@@H](C)CC)[C@@H](C)O (HELM PEPTIDE1{[CCCCCC(=O)[*:2]].T.I.T.F.D.Y}$$$$V2.0) , give the reported pKi.
Solution: 4.47

Exercise: Item under review: CCCCCCCCCCCCCCCC(=O)N[C@@H](Cc1ccc(O)cc1)C(=O)N[C@@H](CC(N)=O)C(=O)N[C@H](C(=O)O)[C@@H](C)O (HELM PEPTIDE1{[CCCCCCCCCCCCCCCC(=O)[*:2]].Y.N.T}$$$$V2.0) . Reported pKi?
Solution: 4.52

Exercise: If you can, please state the reported pKi value of CCCCCCCCCCCCCCCC(=O)N[C@@H](Cc1ccc(O)cc1)C(=O)N[C@@H](CCC(=O)O)C(=O)N[C@@H](CC(C)C)C(=O)O (HELM PEPTIDE1{[CCCCCCCCCCCCCCCC(=O)[*:2]].Y.E.L}$$$$V2.0) .
Solution: 4.74

Exercise: Query: pKi; subject: CCCCCC(=O)N[C@H](C(=O)N[C@H](C(=O)N[C@H](C(=O)N[C@@H](Cc1ccccc1)C(=O)N[C@@H](CCCCN)C(=O)N[C@@H](Cc1ccccc1)C(=O)O)[C@@H](C)O)C(C)C)[C@@H](C)O (HELM PEPTIDE1{[CCCCCC(=O)[*:2]].T.V.T.F.K.F}$$$$V2.0)
Solution: 4.37

Exercise: Using the record for CCCCCCCCCC(=O)N[C@H](C(=O)N[C@H](C(=O)N[C@H](C(=O)N[C@@H](Cc1ccc(O)cc1)C(=O)N[C@@H](CCCCN)C(=O)N[C@@H](Cc1ccccc1)C(=O)O)[C@@H](C)O)C(C)C)[C@@H](C)O (HELM PEPTIDE1{[CCCCCCCCCC(=O)[*:2]].T.V.T.Y.K.F}$$$$V2.0) , report its pKi.
Solution: 4.14

====

- tested.system: Proteasome Macropain subunit (Saccharomyces cerevisiae S288c) (UniProt P22141)
- Sequence (P22141 whole entry): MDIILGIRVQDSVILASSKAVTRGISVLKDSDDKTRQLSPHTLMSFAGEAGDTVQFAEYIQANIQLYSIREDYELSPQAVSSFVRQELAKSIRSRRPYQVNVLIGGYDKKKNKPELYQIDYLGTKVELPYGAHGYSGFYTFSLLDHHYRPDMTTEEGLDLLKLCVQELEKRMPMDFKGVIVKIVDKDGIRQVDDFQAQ
- assay.remarks: Inhibition of trypsin like activity of yeast 20S proteasome at 80 uM
Residues, ends and D or L forms follow the SMILES beside them.
Please respond with reported inhibition for every item in the list.

Exercise: Entry under review: CCCCCCCCCCCCCCCC(=O)OC . Reported inhibition?
Solution: < 10%

Exercise: # query: inhibition of entry CCCCCCCCCCCCCCCC(=O)N[C@H](C(=O)N[C@H](C(=O)N[C@H](C(=O)N[C@@H](Cc1ccccc1)C(=O)N[C@@H](CC(=O)O)C(=O)N[C@@H](Cc1ccc(O)cc1)C(=O)O)[C@@H](C)O)[C@@H](C)CC)[C@@H](C)O (HELM PEPTIDE1{[CCCCCCCCCCCCCCCC(=O)[*:2]].T.I.T.F.D.Y}$$$$V2.0)
Solution: < 10%

Exercise: Please look up its inhibition: CCCCCC(=O)N[C@H](C(=O)N[C@H](C(=O)N[C@H](C(=O)N[C@@H](Cc1ccccc1)C(=O)N[C@@H](CC(=O)O)C(=O)N[C@@H](Cc1ccc(O)cc1)C(=O)O)[C@@H](C)O)[C@@H](C)CC)[C@@H](C)O (HELM PEPTIDE1{[CCCCCC(=O)[*:2]].T.I.T.F.D.Y}$$$$V2.0)
Solution: < 10%

Exercise: // lookup inhibition for CCCCCCCCCC(=O)N[C@H](C(=O)N[C@H](C(=O)N[C@H](C(=O)N[C@@H](Cc1ccc(O)cc1)C(=O)N[C@@H](CCCCN)C(=O)N[C@@H](Cc1ccccc1)C(=O)O)[C@@H](C)O)C(C)C)[C@@H](C)O (HELM PEPTIDE1{[CCCCCCCCCC(=O)[*:2]].T.V.T.Y.K.F}$$$$V2.0)
Solution: < 10%

Exercise: Fill in: inhibition of CCCCCCCC(=O)N[C@H](C(=O)N[C@H](C(=O)N[C@H](C(=O)N[C@@H](Cc1ccccc1)C(=O)N[C@@H](CC(=O)O)C(=O)N[C@@H](Cc1ccc(O)cc1)C(=O)O)[C@@H](C)O)[C@@H](C)CC)[C@@H](C)O (HELM PEPTIDE1{[CCCCCCCC(=O)[*:2]].T.I.T.F.D.Y}$$$$V2.0) is ___
Solution: < 10%
